Test system: HeLa cells
Test: Compound screen by flow cytometry: HeLa cell count as surrogate readout of cell viability (z-scoreHeLa)
Format: cell-based, human
Conditions: PKIS compound screen raw data, HeLa cell count, replicate 1
observation_type: cell count rep 1
Output spec: single numeric token, no unit.

{"molecule": "COc1ccc(COc2ccc(Cc3cnc(N)nc3N)cc2OC)cc1 [GW632580X]", "target_or_system": "HeLa cells", "cell count rep 1": 16746}
{"molecule": "COC(=O)c1cccc(NC(=O)NC2CCN(c3ccnc(NCc4ccc(F)cc4)n3)CC2)c1 [GSK1379860A]", "target_or_system": "HeLa cells", "cell count rep 1": 26314}
{"molecule": "COc1cc(Nc2nccc(N3CCC(NC(=O)c4cc5ccccc5s4)C3)n2)cc(OC)c1OC (centres unmarked) [GSK1379760A]", "target_or_system": "HeLa cells", "cell count rep 1": 31010}
{"molecule": "O=C(NC1CCN(c2ccnc(Nc3ccc(F)cc3)n2)C1)c1cc2ccccc2s1 (centres unmarked) [GSK1379716A]", "target_or_system": "HeLa cells", "cell count rep 1": 35239}
{"molecule": "CS(=O)(=O)CCNCc1nc(-c2ccc3ncnc(Nc4ccc(F)c(Cl)c4)c3c2)cs1 [GW461104A]", "target_or_system": "HeLa cells", "cell count rep 1": 1413}
{"molecule": "CCS(=O)(=O)c1ccc(OC)c(Nc2ncc(-c3cccc(-c4ccccc4F)c3)o2)c1 [GW678313X]", "target_or_system": "HeLa cells", "cell count rep 1": 18271}
{"molecule": "Nc1ncc(-c2ccncc2)c2scc(-c3ccc4c(c3)CCN4C(=O)Cc3ccccc3)c12 [GSK2592465A]", "target_or_system": "HeLa cells", "cell count rep 1": 4912}

# context switch: different molecule, same cell count rep 1
Qu. Looking for the measured cell count rep 1 of Cc1cccc(-c2nc(Nc3cccc(C(N)=O)c3)c3ccccc3n2)n1 [GW876019X] , can you help?
Ans. 25839

----------
As shown below, each of these compounds has a reported cell count rep 2 value.
System: HeLa cells
Experiment: Compound screen by flow cytometry: HeLa cell count as surrogate readout of cell viability (z-scoreHeLa)
Format: cell-based, human
Conditions: PKIS compound screen raw data, HeLa cell count, replicate 2
Give only the figure.

Please review the following examples before continuing.
{"compound": "Cc1ccc(C(=O)Nc2ccc(Nc3ccnc4cc(-c5ccccn5)ccc34)cc2O)cc1 [GW440146A]", "target_or_system": "HeLa cells", "test_result": 4726}
{"compound": "COc1cc(C)c(N(C)C(=O)CN(C)C)cc1Nc1nc(Nc2cccc(F)c2C(N)=O)c2cc[nH]c2n1 [GSK2219385A]", "target_or_system": "HeLa cells", "test_result": 25742}
{"compound": "CN(C)CCCNc1nccc(-c2c(-c3ccc(F)cc3)nn3cc(C(F)(F)F)ccc23)n1 [GW618013A]", "target_or_system": "HeLa cells", "test_result": 24495}

Qu. Can you share its cell count rep 2? I mean this compound: Cc1ccnc2ccc(-c3sc(N)nc3-c3ccccn3)nc12 [GW777257X]
Ans. 3185

----------
Tested on: HeLa cells
Experiment: Compound screen by flow cytometry: HeLa cell count as surrogate readout of cell viability (z-scoreHeLa)
Type: cell-based, human
Details: Yes/No call from z-scoreHeLa
observation_type: cell death

{"compound": "CN(C)CCOc1ccc(-c2cc(-c3ccc(Cl)c(O)c3)c(-c3ccncc3)[nH]2)cc1.Cl.Cl [SB-684387-B]", "cell death": "No"}
{"compound": "COC(=O)Nc1nc2ccc(Oc3ccc(NC(=O)Nc4cc(C(F)(F)F)ccc4F)cn3)cc2[nH]1 [GW681170A]", "cell death": "No"}
{"compound": "CC(C(=O)NC1CCN(c2ccnc(Nc3ccc(F)cc3)n2)C1)c1ccc(Cl)cc1 (centres unmarked) [GSK1379713A]", "cell death": "No"}
{"compound": "Cc1cc(N2Cc3ccccc3C2)nc(Nc2ccc(S(=O)(=O)N3CCOCC3)cc2)n1 [GSK1669917A]", "cell death": "No"}
{"compound": "Cc1ccc(C)c(NC(=O)NCCNc2ccnc(Nc3ccc(F)cc3)n2)c1 [GSK1379878A]", "cell death": "No"}

Qu. Look up cell death with HeLa cells for this compound: Nc1nccc2scc(-c3ccc4c(c3)CCN4C(=O)Cc3ccccc3)c12 [GSK2576924A]
Ans. No

Qu. What value of cell death on HeLa cells does COc1ccc(Nc2nccc(-c3ccc(NC(=O)c4cc5cc(F)ccc5[nH]4)cc3)n2)cc1 [GSK1229496A] have?
Ans. No

Qu. Short answer please: cell death, HeLa cells, entry CN1CCN(Cc2ccc(NC(=O)Nc3ccc(N(C)c4ccnc(Nc5ccc(CS(C)(=O)=O)cc5)n4)cc3)cc2)CC1 [GW827654A]
Ans. No

----------
System: HeLa cells
Test: Compound screen by flow cytometry: HeLa cell count as surrogate readout of cell viability (z-scoreHeLa)
Type: cell-based, human
Conditions: PKIS compounds raw data; replicate 2; HeLa cell count
observation_type: cell count rep 2
Answer as a number with no unit attached.

{"compound": "CS(=O)(=O)Nc1ccc(N/C=C2\\C(=O)Nc3ccccc32)cc1 [GW278681X]", "cell count rep 2": 4720}
{"compound": "COc1cc(Nc2nccc(N3CCC(NC(=O)Nc4ccc5c(c4)OCO5)C3)n2)cc(OC)c1OC (stereo not shown) [GSK1379766A]", "cell count rep 2": 5809}
{"compound": "COc1ccc(Nc2nccc(N3CCC(NC(=O)C(C)c4ccc(Cl)cc4)CC3)n2)cc1 (stereo not shown) [GSK1379812A]", "cell count rep 2": 7004}

Please examine the following record next.
Qu. Fill in the blank: the reported cell count rep 2 of NS(=O)(=O)c1ccc(N/N=C2\C(=O)Nc3ccc(Cl)cc32)cc1 [GW280670X] is ____.
Ans. 4629

----------
Test system: HeLa cells
Assay: Compound screen by flow cytometry: HeLa cell count as surrogate readout of cell viability (z-scoreHeLa)
Assay type: cell-based, human
Details: compound screen, HeLa cell count, replicate 3
Class (by z-scoreHeLa rep 3) -- low end (below -0.5), middle (-0.5 to below 0.8), high end (0.8 or more)

Worked examples, 4 compounds total:
{"compound": "Fc1cccc(COc2ccc(Nc3ncnc4sc(-c5ccc[nH]5)cc34)cc2Cl)c1 [GW707818B]", "target_or_system": "HeLa cells", "category_label": "high end"}
{"compound": "O=C(Nc1n[nH]c2cc(-c3cccs3)ccc12)C1CC1", "target_or_system": "HeLa cells", "category_label": "low end"}
{"compound": "CC(C(=O)NC1CCN(c2ccnc(Nc3ccc(F)cc3)n2)C1)c1ccc(Cl)cc1 (stereo not shown) [GSK1379713A]", "target_or_system": "HeLa cells", "category_label": "high end"}
{"compound": "Cc1ccc(C(=O)Nc2ccc(Nc3ccnc4cc(-c5ccccn5)ccc34)cc2O)cc1 [GW440146A]", "target_or_system": "HeLa cells", "category_label": "middle"}

Qu. # bin label for Fc1cc(Cl)ccc1Nc1ccnc2cc(I)ccc12 [GW551191X]
Ans. high end

Qu. Looking at "O=C(Nc1n[nH]c2cc(-c3ccsc3)ccc12)C1CC1" , which class would you pick?
Ans. high end

Qu. Please indicate the class for Cc1ccc(C)c(NC(=O)NCCNc2ccnc(Nc3ccc(F)cc3)n2)c1 [GSK1379878A] based on its z-scoreHeLa rep 3.
Ans. middle

Qu. Hi there! Could you help me figure out the category for Cc1cccc(-c2nc(Nc3ccc4c(cnn4C)c3)c3ccccc3n2)n1 [GW876731X] please?
Ans. high end

Qu. Kindly identify the class of O=c1cc(N2CCOCC2)nc2n(Cc3cccc(Cl)c3)ccn12 [GSK2296823A] .
Ans. high end

Qu. Category of Cc1ccc2c(c1)C(=NNc1ccc(S(N)(=O)=O)cc1)C(=O)N2 [GW275944X] , please.
Ans. middle

Qu. Please let me know in which category the item CS(=O)(=O)CCNCc1ccc(-c2ccc3ncnc(Nc4ccc(OCc5ccccc5)c(Br)c4)c3c2)o1 [GW580496A] belongs.
Ans. high end

Qu. Kindly identify the class of CS(=O)(=O)CCNCc1nc(-c2ccc3ncnc(Nc4ccc(OCc5ccccc5)c(Cl)c4)c3c2)cs1 [GW582764A] .
Ans. middle

Qu. Classify this compound: COc1ccc(CNC(=O)NC2CCN(c3ccnc(Nc4ccc(F)cc4)n3)CC2)cc1 [GSK1379788A]
Ans. high end

Qu. For CN1CCN(Cc2ccc(NC(=O)Nc3ccc(N(C)c4ccnc(Nc5ccc(CS(C)(=O)=O)cc5)n4)cc3)cc2)CC1 [GW827654A] , which z-scoreHeLa rep 3 bin applies?
Ans. high end

----------
Listed next: entries and their corresponding z-scoreHeLa rep 3.
System: HeLa cells
Assay: Compound screen by flow cytometry: HeLa cell count as surrogate readout of cell viability (z-scoreHeLa)
Type: cell-based, human
Details: PKIS compound screen, HeLa cell count, replicate 3
Protocol: The cells were resuspended in cell culture medium without antibiotics, seeded with 10,000 cells/well into Costar flat-bottom 96-well plates (Corning, Amsterdam, the Netherlands), and were incubated overnight at 37°C/5% CO2. […] The calculated mean MOI throughout all experiments was 6.8 ± 4.6 (mean ± SD). […] HeLa cells were harvested by trypsinization and fixed with 1% paraformaldehyde. Samples were measured on a FACSLyric with HTS extension (BD Biosciences). […]
Please respond with just the number, no unit label.

Here's what some known entries look like.
{"molecule": "O=c1cc(N2CCOCC2)nc2n(Cc3cccc(Cl)c3Cl)c(C3CC3)nn12 [GSK2358994A]", "z-scoreHeLa rep 3": 3.69}
{"molecule": "O=C1Nc2ccc(-c3cccnc3)cc2C1=Cc1cc(Br)c(O)c(Br)c1 [GW429374A]", "z-scoreHeLa rep 3": 1.58}
{"molecule": "CC(C)S(=O)(=O)N1CCN(Cc2ccc3c(c2)nc(NC(=O)c2ccsc2)n3C[C@H](O)c2ccccc2)CC1 [GW635815X]", "z-scoreHeLa rep 3": 1.04}

Moving on to another molecule below.
Qu. Consider the molecule CS(=O)(=O)CCNCc1ccc(-c2ccc3ncnc(Nc4ccc(OCc5ccccc5)c(Cl)c4)c3c2)o1 [GW574783B] and give its measured z-scoreHeLa rep 3.
Ans. 1.58

Reference source for all entries: paper PMC10999543
